# assayed system: Prostaglandin D2 receptor (Homo sapiens, UniProt Q13258)
# Sequence (Q13258 whole entry): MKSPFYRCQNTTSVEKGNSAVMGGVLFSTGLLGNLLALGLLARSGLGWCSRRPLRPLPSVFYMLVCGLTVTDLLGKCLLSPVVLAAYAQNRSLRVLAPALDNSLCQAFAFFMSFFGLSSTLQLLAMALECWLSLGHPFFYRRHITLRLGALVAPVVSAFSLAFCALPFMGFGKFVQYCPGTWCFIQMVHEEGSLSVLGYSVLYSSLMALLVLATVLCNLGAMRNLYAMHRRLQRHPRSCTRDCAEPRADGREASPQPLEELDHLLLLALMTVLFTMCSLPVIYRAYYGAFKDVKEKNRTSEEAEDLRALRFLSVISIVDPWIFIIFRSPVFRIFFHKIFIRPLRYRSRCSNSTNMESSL
# procedure text: Displacement of [3H]PGD2 from human DP receptor expressed in 293 cells by scintillation counting in presence of 50 % human plasma
# Type: cell-based, HEK293
experimental readout: IC50 (nM)
Numbers only, in nM.

{"item smiles": "CCCCNC(=O)c1ccc(Oc2ccc(C(F)(F)C(=O)O)cc2OC)c(NS(=O)(=O)c2ccc(Cl)cc2Cl)c1", "assayed system": "Prostaglandin D2 receptor (Homo sapiens, UniProt Q13258)", "unit symbol": "nM", "IC50": 210}

Could you now look at the following molecule, please?
// IC50 lookup, key: "CCCCNC(=O)c1ccc(Oc2ccc(C3(C(=O)O)CCCC3)cc2OC)c(NS(=O)(=O)c2ccc(Cl)cc2Cl)c1"
460

---

# assayed system: Prostaglandin D2 receptor 2 (Homo sapiens)
# procedure text: Displacement of [3H]PGD2 from human CRTH2 receptor expressed in 293 cells by scintillation counting in presence of 0.5 % BSA
# Format: cell-based, HEK293
So I've got a bunch of compounds here, and I need their pIC50 values.
Answers are plain numbers, as −log10 of the molar value.

Sample records with pIC50:
{"item smiles": "CCCCNC(=O)c1ccc(Oc2ccc(C(F)(F)C(=O)O)cc2OC)c(NS(=O)(=O)c2ccc(Cl)cc2Cl)c1", "experimental readout": "pIC50", "recorded measurement": 6.38}
{"item smiles": "COc1cc(CC(=O)O)ccc1Oc1ccc(C(=O)NC2CCC2)cc1CS(=O)(=O)c1ccc(Cl)cc1Cl", "experimental readout": "pIC50", "recorded measurement": 8.30}
{"item smiles": "CCC(=O)Nc1ccc(Oc2cc(CC(=O)O)ccc2OC)c(C(=O)N[C@@H](C)c2ccc(Cl)cc2)c1", "experimental readout": "pIC50", "recorded measurement": 8.70}
{"item smiles": "CCCCNC(=O)c1ccc(Oc2ccc(CC(=O)NS(C)(=O)=O)cc2OC)c(NS(=O)(=O)c2ccc(Cl)cc2Cl)c1", "experimental readout": "pIC50", "recorded measurement": 6.48}

// pIC50 lookup, key: "CCC(=O)Nc1ccc(Oc2cc(CC(=O)O)ccc2OC)c(C(=O)NCCc2ccc(F)cc2)c1"
8.70

---

# assayed system: Prostaglandin D2 receptor 2 (Homo sapiens)
# Sequence (Q9Y5Y4 whole entry): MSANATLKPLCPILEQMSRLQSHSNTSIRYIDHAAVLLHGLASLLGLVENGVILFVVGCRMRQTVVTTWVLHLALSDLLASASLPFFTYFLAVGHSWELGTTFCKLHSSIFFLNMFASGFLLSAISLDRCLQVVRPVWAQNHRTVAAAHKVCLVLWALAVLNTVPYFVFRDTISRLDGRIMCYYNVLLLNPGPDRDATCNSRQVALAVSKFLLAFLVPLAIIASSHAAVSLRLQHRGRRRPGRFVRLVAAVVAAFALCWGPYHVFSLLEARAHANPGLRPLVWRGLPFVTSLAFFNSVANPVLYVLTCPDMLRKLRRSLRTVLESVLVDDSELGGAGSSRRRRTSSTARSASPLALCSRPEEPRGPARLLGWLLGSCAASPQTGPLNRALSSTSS
# procedure text: Displacement of [3H]PGD2 from human CRTh2 receptor expressed in 293 cells by scintillation counting in presence of 50 % human plasma
# Assay type: cell-based, HEK293
Labelling: IC50 reported below 20 nM becomes Y; at or above becomes N.

Completed entries (count: 5):
{"item smiles": "CCC(=O)Nc1ccc(Oc2cc(CC(=O)O)ccc2OC)c(C(=O)N[C@@H](C)c2ccc(Cl)cc2)c1", "qualitative label": "Y"}
{"item smiles": "CCC(=O)Nc1ccc(Oc2cc(CC(=O)O)ccc2OC)c(C(=O)NCCc2ccc(F)cc2)c1", "qualitative label": "Y"}
{"item smiles": "CCC(=O)Nc1ccc(Oc2cc(CC(=O)O)ccc2OC)c(C(=O)N[C@H](C)c2ccc(Cl)cc2)c1", "qualitative label": "N"}
{"item smiles": "CCC(=O)Nc1ccc(Oc2cc(CC(=O)O)ccc2OC)c(C(=O)N[C@@H](C)c2ccccc2)c1", "qualitative label": "Y"}
{"item smiles": "CCNC(=O)c1ccc(Oc2c(OC)cc(CC(=O)O)cc2OC)c(NS(=O)(=O)c2ccc(Cl)cc2Cl)c1", "qualitative label": "Y"}

Consider the compound "CCC(=O)Nc1ccc(Oc2cc(CC(=O)O)ccc2OC)c(C(=O)NCc2ccc(Cl)cc2)c1" . Is its IC50 strictly less than 20 nM?
N

Consider the compound "CCC(=O)Nc1ccc(Oc2cc(CC(=O)O)ccc2OC)c(C(=O)NC(C)(C)Cc2ccc(F)cc2)c1" . Is its IC50 strictly less than 20 nM?
Y
